Species: Canis familiaris
Procedure Details: Relative activity (fraction of the most active compound 24) was determined
Assay type: functional, Canis lupus familiaris
Cut-off 0.2 on Relative activity: below means class 1, at or above means class 0.

Answered cases to consult:
* CN1CCCN=C1NCCSc1c[nH]c2ccccc12 | class 1
* COc1ccc(CC/N=C2/CCCN2C)cc1OC [MIXIDINE] | class 1
* Cc1[nH]c2ccccc2c1SCC/N=C1\CCCN1C | class 1

Consider now this further molecule.
Threshold test, Relative activity < 0.2: c1ccc2c(SCCNC3=NCCC3)c[nH]c2c1
class 1

====

Organism: Canis familiaris
Procedure Details: Relative activity (fraction of the most active compound 24) was determined
Assay type: functional, Canis lupus familiaris
Each entry below lists one item and its recorded Relative activity value.
Give the figure by itself; no unit, no explanation.

Answered cases to consult:
* COc1ccc2[nH]cc(SCC/N=C3\CCCN3C)c2c1 | 0.24
* CN1CCN=C1NCCSc1c[nH]c2ccccc12 | 0.22
* CCc1ccc2[nH]cc(SCC/N=C3\CCCN3C)c2c1 | 0.06

The record that follows has no Relative activity shown yet.
Requested field: Relative activity. Item: CC(C)NCC(O)COc1cccc2ccccc12 (configuration not stated) [PROPRANOLOL]
0.13

====

Overview of reported Relative activity across a group of molecules:
Organism: Canis familiaris
Procedure Details: Relative activity (fraction of the most active compound 24) was determined
Type: functional, Canis lupus familiaris
Lab note: jot the number down without any unit.

Previously resolved entries follow.
• C=CCCn1cc(SCC/N=C2\CCCN2C)c2ccccc21 = 0.46
• CC(C)COCC(CN(Cc1ccccc1)c1ccccc1)N1CCCC1 (configuration not stated) [BEPRIDIL] = 0.23
• CN1CCCCC/C1=N\CCSc1c[nH]c2ccccc12 = 0.04

Need Relative activity, item Cc1[nH]c2ccccc2c1SCC/N=C1\CCCCN1C
0.22

Please report the recorded Relative activity for C#CCn1cc(SCC/N=C2\CCCN2C)c2ccccc21 .
0.61

Looking for the measured Relative activity of CC(C)n1cc(SCC/N=C2\CCCN2C)c2ccccc21 , can you help?
0.6

Consider the molecule CN1CCN=C1NCCc1c[nH]c2ccccc12 and give its measured Relative activity.
0.06

Requested read-out: Relative activity. Entry: C#CCn1cc(CC/N=C2/CCCN2C)c2ccccc21
0.46

Would you kindly share the measured Relative activity for CCCn1cc(SCC/N=C2\CCCN2C)c2ccccc21 ?
0.5

====

Organism: Canis familiaris
Procedure Details: Relative activity (fraction of the most active compound 24) was determined
Assay type: functional, Canis lupus familiaris
Listing of recorded Relative activity by entry.
Write the number on its own, no unit after it.

Reported Relative activity for CN1CCC/C1=N/CCc1c[nH]c2ccccc12 : what is it?
0.15

Please give the measured Relative activity for this molecule: CN1CCCC/C1=N\CCSc1c[nH]c2ccccc12
0.23

I would be grateful if you could share the reported Relative activity for CC(CSc1c[nH]c2ccccc12)/N=C1\CCCN1C (stereo unspecified) .
0.28

Would you kindly share the measured Relative activity for CN1CCCC1=NCCCCc1c[nH]c2ccccc12 ?
0.11

Field request: Relative activity | item: c1ccc(N2CCC/C2=N\CCSc2c[nH]c3ccccc23)cc1
1

Fill blank: measured Relative activity of the molecule CN1CCC/C1=N\CCSc1cn(CC2CC2)c2ccccc12 is ____.
0.57
